Tested on: CD2F1 mice, L1210 leukemia ip, survival T/C
Protocol Summary: NCI In Vivo Anticancer Drug Screen. Data for tumor model L1210 Leukemia (intraperitoneal) in CD2F1 (CDF1) mice
Condition Summary: endpoint: mean survival time; dose: 100.0 mg/kg/injection; schedule: Q04DX003 (ip); vehicle: saline with Tween-80; higher = longer survival
Inconclusive results and toxic doses are left out.
Attribute Measured: T/C

> print(dat)
                                   molecule         obs.value
1                Cn1cnc2c(SCc3ccccc3)ncnc21  104 % of control
2      CC(C)c1ccc(NC(=O)Nc2cccc3ccccc23)cc1  102 % of control
3  O=C1C(Br)CCC1C(O)(C(F)(F)F)C(F)(F)F (stereo unspecified)   92 % of control
4                      COc1ccc(/C=N\O)cc1OC  101 % of control
5  CCOC(=O)C(C)C(C)(O)c1ccccc1 (stereo unspecified)   97 % of control
6  CCC(C)CC(=O)Nc1cccc(O)c1 (stereo unspecified)   96 % of control

###

Tested on: CD2F1 mice, L1210 leukemia ip, survival T/C
Protocol Summary: NCI In Vivo Anticancer Drug Screen. Data for tumor model L1210 Leukemia (intraperitoneal) in CD2F1 (CDF1) mice
Condition Summary: endpoint: mean survival time; dose: 200.0 mg/kg/injection; schedule: Q04DX003 (ip); vehicle: saline with Tween-80; higher = longer survival
Inconclusive results and toxic doses are left out.
Attribute Measured: T/C

> print(dat)
                                    compound  attribute.measured         obs.value
 1  COc1cccc(/C=N/OCCNC(=O)c2ccc([N+](=O)[O-])cc2)c1                 T/C   93 % of control
 2             CNC(=O)Oc1cccc(NC(=O)OCCOC)c1                 T/C   99 % of control
 3  CCCCCCCCCCCC[Si](CCCCCCCCCCCC)(c1ccccc1)c1ccccc1                 T/C   93 % of control
 4  S=C(NC1CCCCC1)N1CCC(CCCC2CCN(C(=S)NC3CCCCC3)CC2)CC1                 T/C   94 % of control
 5  O=C(c1ccccc1)c1cn(C2CCCCC2)c(-c2ccccc2)c1NC1CCCCC1                 T/C   87 % of control
 6                Cc1ccc([N+](=O)[O-])c(N)n1                 T/C   98 % of control
 7   O=C(O)c1c(F)c(F)c2c(F)c(F)c(F)c(F)c2c1F                 T/C   92 % of control
 8                       Nc1ccc(N2CCNCC2)cc1                 T/C  101 % of control
 9  O=C(c1ccc(-c2ccccc2)cc1)c1no[n+]([O-])c1C(=O)c1ccc(-c2ccccc2)cc1                 T/C   98 % of control
10                  Oc1ccc2ccccc2c1Cc1ccccc1                 T/C   97 % of control
11  CCCCOC1CCC(O)C2CCCCC12 (stereo not drawn)                 T/C   96 % of control
12         COc1cc(/C=N\NC(=O)CC#N)cc(OC)c1OC                 T/C   98 % of control
13  CCOC(=O)C(C)C1(O)CCCCC1 (stereo not drawn)                 T/C  101 % of control
14                 O=C(O)/C=C/C(=O)NCc1ccco1                 T/C   94 % of control
15  O=S1(=O)CC(Br)C(Br)C1 (stereo not drawn)                 T/C  107 % of control
16  CC1=C(Br)C(=O)C(C(O)(C(F)(F)F)C(F)(F)F)C(C)(C)C1 (stereo not drawn)                 T/C   96 % of control
17  Cc1cc([N+](=O)[O-])ccc1NC(=S)NC(=O)COc1ccccc1                 T/C   97 % of control
18  O=C(O)/C(=C\c1cccc([N+](=O)[O-])c1)c1ccccc1                 T/C  100 % of control
19            Clc1ccc2c(c1)Nc1cc(Cl)ccc1C=C2                 T/C   93 % of control
20                      Cc1cccc(CC(F)(F)F)c1                 T/C  100 % of control
21  CCCCOC(=O)C(C)OC(=O)Nc1cccc(Cl)c1 (stereo not drawn)                 T/C  101 % of control
22                        O=[N+]([O-])O.[La]                 T/C   93 % of control
23      Cc1ccc(C(=O)/C=C/c2ccc(N(C)C)cc2)cc1                 T/C   87 % of control
24   CCCCOc1ccc(/C=N\N=C\c2ccc(OCCCC)cc2)cc1                 T/C   91 % of control
25                 O=C(O)c1c[nH]c2ccccc2c1=O                 T/C  101 % of control
26     O=C(/C(=N\O)c1ccc(Cl)cc1)c1ccc(Cl)cc1                 T/C   87 % of control
27          Nc1ccccc1-c1ccc([N+](=O)[O-])cc1                 T/C   92 % of control
28  COC1(c2ccccc2)CN(Cc2ccccc2)CCO1 (stereo not drawn)                 T/C  100 % of control
29       COc1ccc(OC)c(/C=C/c2ccc3ccccc3n2)c1                 T/C  104 % of control
30  N#CC[CH2][Sn]([c]1ccccc1)([c]1ccccc1)[c]1ccccc1                 T/C   91 % of control
31  O=C1c2ccccc2-c2ccc3c4ccc5c6c(ccc(c7ccc1c2c73)c64)C(=O)c1ccccc1-5                 T/C   87 % of control
32                CCn1c(C)nc2cc(C(N)=O)ccc21                 T/C   96 % of control
33                Cc1cc2oc(=O)cc(O)c2c(=O)o1                 T/C   97 % of control
34                   CC(C)(C)NSc1nc2ccccc2s1                 T/C   96 % of control
35  N#CC1CC(c2cccs2)Nc2ccccc2N1 (stereo not drawn)                 T/C   90 % of control
36  c1cc2c3c(cccc3c1)/C(=C1/Cc3cccc4cccc1c34)C2                 T/C  104 % of control
37  CC(C)(C)C1CC(=O)N(c2ccccc2)N1 (stereo not drawn)                 T/C   98 % of control
38                        CC(C)(CO)CN1CCCCC1                 T/C   93 % of control

###

Test system: CD2F1 mice, L1210 leukemia ip, survival T/C
Protocol Summary: NCI In Vivo Anticancer Drug Screen. Data for tumor model L1210 Leukemia (intraperitoneal) in CD2F1 (CDF1) mice
Condition Summary: endpoint: mean survival time; dose: 200.0 mg/kg/injection; schedule: Q04DX003 (ip); vehicle: saline; higher = longer survival
Inconclusive results and toxic doses are left out.
Attribute Measured: T/C

> print(dat)
                                    compound  attribute.measured         obs.value
 1                  NCc1cccc([N+](=O)[O-])c1                 T/C  109 % of control
 2  O=[N+]([O-])c1ccc(N/N=C(\CO)c2ccccc2)c([N+](=O)[O-])c1                 T/C   97 % of control
 3         CCCCC(N)C(=O)O (stereo not given)                 T/C  103 % of control
 4             Clc1ccc(C2(c3ccncc3)OCCO2)cc1                 T/C  101 % of control
 5      NCC1OC(CO)C(O)C1O (stereo not given)                 T/C  100 % of control
 6                          CNNCCC(=O)NC(C)C                 T/C   91 % of control
 7                         O=C(CCl)Cc1ccccc1                 T/C  101 % of control
 8                            C=CCS(=O)(=O)O                 T/C  107 % of control
 9     NS(=O)(=O)c1ccc(NC(=O)/C=C/C(=O)O)cc1                 T/C   97 % of control
10                C[N+](C)(C)CCS(=O)(=O)[O-]                 T/C  100 % of control
